# TGT: Pin1 (Homo sapiens, UniProt Q13526)
# Sequence (Q13526 whole entry): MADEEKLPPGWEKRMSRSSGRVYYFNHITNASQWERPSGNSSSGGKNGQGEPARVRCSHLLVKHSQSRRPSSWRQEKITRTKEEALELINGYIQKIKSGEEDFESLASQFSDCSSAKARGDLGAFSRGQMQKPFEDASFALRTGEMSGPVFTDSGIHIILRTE
# MEASUREMENT_DESCRIPTION: confirmatory Pin1 fluorescence polarization competition assay (Alexa488 reconfirmed);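 note: Pin1 competition with a HiFluor488-labelled peptide probe, read as fluorescence polarization after 10 min at room temperature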
# CONDITION_CONTEXT: read-out: Alexa488 Reconfirmed Efficacy
TEST_READOUT: Emax (%)

Field request: Emax | item: Cc1ccc(C)n1-c1sccc1C(=O)O 91

Field request: Emax | item: CC(=O)c1ccc2c(c1)C1C=CCC1C(C(=O)O)N2 (centres unmarked) 90

Field request: Emax | item: Cc1ccc(C(=O)c2no[n+]([O-])c2C(=O)c2ccc(C)cc2)cc1 90

Field request: Emax | item: Cc1c(C(=O)c2no[n+]([O-])c2C(=O)c2cnn(C)c2C)cnn1C 89

Field request: Emax | item: O=C(O)C1Nc2c(O)cc(Cl)c([N+](=O)[O-])c2C2C=CCC12 (centres unmarked) 89
